Test: Effects of influx/efflux transporter inhibitors and CO on morroniside transport in Caco-2 cell monolayers
Type: in vitro ADME, human
Settings: human, Caco-2, pH 7.4, 25 μM morroniside; Control (no inhibitor); read-out: Efflux ratio P
recorded-metric: efflux ratio at 180 min, 25 μM

Give the measured efflux ratio at 180 min, 25 μM of COC(=O)C1=CO[C@@H](O[C@@H]2O[C@H](CO)[C@@H](O)[C@H](O)[C@H]2O)[C@@H]2[C@H](C)O[C@@H](O)C[C@H]12 [morroniside, Morroniside] .
1.61

###

Experiment: Transport of morroniside across Caco-2 cell monolayers (bidirectional, concentration and pH)
Type: in vitro ADME, human
Details: human, Caco-2, AP side pH 6.0, BL side pH 7.4; 5μM morroniside; 37 °C; n = 3; read-out: PappAB
recorded-metric: Papp A→B at 180 min, 5 μM
Your answer should be a number followed by the unit of measure.

Give the measured Papp A→B at 180 min, 5 μM of COC(=O)C1=CO[C@@H](O[C@@H]2O[C@H](CO)[C@@H](O)[C@H](O)[C@H]2O)[C@@H]2[C@H](C)O[C@@H](O)C[C@H]12 [morroniside, Morroniside] .
0.55 ×10⁻⁶ cm/s

###

Test: Transport of morroniside across Caco-2 cell monolayers (bidirectional, concentration and pH)
Type: in vitro ADME, human
Conditions: human, Caco-2; 25 μM morroniside; BL to AP; pH 7.4; 37 °C; n = 3; read-out: PappAB BL-AP
recorded-metric: Papp B→A at 180 min, 25 μM (×10⁻⁶ cm/s)
Quick reminder: number only, in ×10⁻⁶ cm/s, skip the unit.

Give the measured Papp B→A at 180 min, 25 μM of COC(=O)C1=CO[C@@H](O[C@@H]2O[C@H](CO)[C@@H](O)[C@H](O)[C@H]2O)[C@@H]2[C@H](C)O[C@@H](O)C[C@H]12 [morroniside, Morroniside] .
2.92

###

Tested on: Caco-2 cell monolayers
Assay: Effects of influx/efflux transporter inhibitors and CO on morroniside transport in Caco-2 cell monolayers
Assay type: in vitro ADME, human
Settings: 25 μM morroniside; AP to BL; with apigenin 25 μM
recorded-metric: PappAB (mean)
Your answer should be a number followed by the unit of measure.

Give the measured PappAB (mean) of COC(=O)C1=CO[C@@H](O[C@@H]2O[C@H](CO)[C@@H](O)[C@H](O)[C@H]2O)[C@@H]2[C@H](C)O[C@@H](O)C[C@H]12 [morroniside, Morroniside] .
6.12 ×10⁻⁶ cm/s

###

Test: Effects of influx/efflux transporter inhibitors and CO on morroniside transport in Caco-2 cell monolayers
Assay type: in vitro ADME, human
Conditions: human, Caco-2; Control (no inhibitor); influx transporter experiment; pH 7.4; 37 °C
recorded-metric: Papp B→A at 180 min (×10⁻⁶ cm/s)
Quick reminder: number only, in ×10⁻⁶ cm/s, skip the unit.

Give the measured Papp B→A at 180 min of COC(=O)C1=CO[C@@H](O[C@@H]2O[C@H](CO)[C@@H](O)[C@H](O)[C@H]2O)[C@@H]2[C@H](C)O[C@@H](O)C[C@H]12 [morroniside, Morroniside] .
3.06

###

Assay: Transport of morroniside across Caco-2 cell monolayers (bidirectional, concentration and pH)
Format: in vitro ADME, human
Conditions: human, Caco-2, pH 7.4; 5 μM morroniside; BL to AP; over 3 h
recorded-metric: Papp B→A at 180 min, 5 μM (×10⁻⁶ cm/s)
Quick reminder: number only, in ×10⁻⁶ cm/s, skip the unit.

Give the measured Papp B→A at 180 min, 5 μM of COC(=O)C1=CO[C@@H](O[C@@H]2O[C@H](CO)[C@@H](O)[C@H](O)[C@H]2O)[C@@H]2[C@H](C)O[C@@H](O)C[C@H]12 [morroniside, Morroniside] .
4.1

The measured values listed here are drawn from paper PMC7259638.
